Catalogue of Hepatotoxicity (acute) readings, one per entry.
# APPLIED_CONDITIONS: human, serum
Write the number on its own, no unit after it.

For C[C@]12C/C(=C/O)C(=O)C[C@@H]1CC[C@@H]1[C@@H]2CC[C@@]2(C)[C@H]1CC[C@]2(C)O [OXYMETHOLONE] , what is its reported Hepatotoxicity (acute)?
10

Next:
Please look up its Hepatotoxicity (acute): COc1ccc(C(CN(C)C)C2(O)CCCCC2)cc1 (centres undefined) [VENLAFAXINE]
4

Endpoint output: Hepatotoxicity (acute) of C[C@H]1[C@H](OC(=O)CCC(=O)O)O[C@@H]2O[C@@]3(C)CC[C@H]4[C@H](C)CC[C@@H]1[C@@]24OO3 [ARTESUNATE] . Value?
1

I am curious: what Hepatotoxicity (acute) value has been reported for CCOC(=O)[C@H](CCc1ccccc1)N[C@@H](C)C(=O)N1CCC[C@H]1C(=O)O ?
13

* * *

# APPLIED_CONDITIONS: human
REPORTED_PROPERTY: Hepatotoxicity (cytolytic)

Some solved entries appear below for comparison.
I have this compound here, O=C1c2ccccc2C(=O)C1c1ccccc1 , and I need its recorded Hepatotoxicity (cytolytic).
3

Give its Hepatotoxicity (cytolytic) value. Item: COc1ccnc(C[S+]([O-])c2nc3ccc(OC(F)F)cc3[nH]2)c1OC (stereo not given)
2

Would you mind telling me what Hepatotoxicity (cytolytic) value was observed for CC#CCC(C)[C@H](O)/C=C/[C@@H]1[C@H]2c3cccc(CCCC(=O)O)c3O[C@H]2C[C@H]1O (stereo not given in full) ?
0

May I ask what Hepatotoxicity (cytolytic) has been recorded for Cc1cnc(NCCCN(C)C)c2c1[nH]c1ccc3cc(O)ccc3c12 ?
0

Switching to the query record.
Give its Hepatotoxicity (cytolytic) value. Item: C#C[C@]1(O)CC[C@H]2[C@@H]3CCC4=CC(=O)CCC4=C3C=C[C@@]21CC
0

* * *

# Hepatotoxicity (cytolytic) listing for each entry below
# APPLIED_CONDITIONS: human

For the compound CO/N=C(\C(=O)N[C@@H]1C(=O)N2C(C(=O)O)=C(CSc3nnnn3C)CS[C@H]12)c1csc(N)n1 , what Hepatotoxicity (cytolytic) is on record?
0

Quick one: Hepatotoxicity (cytolytic) of CO[C@H]1/C=C/O[C@@]2(C)Oc3c(C)c(O)c4c(O)c(c5c(nc6cc(C)ccn65)c4c3C2=O)NC(=O)/C(C)=C\C=C\[C@H](C)[C@H](O)[C@@H](C)[C@@H](O)[C@@H](C)[C@H](OC(C)=O)[C@@H]1C ?
0

Bench note: what Hepatotoxicity (cytolytic) did CC(=O)[C@@]1(O)CC[C@H]2[C@@H]3C=C(Cl)C4=CC(=O)[C@@H]5C[C@@H]5[C@]4(C)[C@H]3CC[C@@]21C show?
20

Query: Hepatotoxicity (cytolytic); subject: CC(Cc1ccccc1)NN (stereo not given)
7

For the compound COc1cc(C)c(/C=C/C(C)=C/C=C/C(C)=C/C(=O)O)c(C)c1C , what Hepatotoxicity (cytolytic) is on record?
5

* * *

# PROCEDURE_TEXT: Highest frequency of moderate liver toxicity observed during clinical trials, expressed as a percentage. [column '% BIOL' in source]
# APPLIED_CONDITIONS: human
Entries and their Hepatotoxicity (moderate) values follow.
Report only the number, with the unit % understood.

// solved cases for Hepatotoxicity (moderate) follow
// lookup Hepatotoxicity (moderate) for O=C(CCCN1CCC(O)(c2ccc(Br)cc2)CC1)c1ccc(F)cc1 [BROMPERIDOL]
0

Consider the compound shown here: CC(=O)Nc1cc([As](=O)(O)O)ccc1O [ACETARSONE] What is its recorded Hepatotoxicity (moderate)?
0

Reported Hepatotoxicity (moderate), compound CC[C@]1(O)C[C@@H]2CN(CCc3c([nH]c4ccccc34)[C@@](C(=O)OC)(c3cc4c(cc3OC)N(C)[C@H]3[C@@](O)(C(=O)OC)[C@H](OC(C)=O)[C@]5(CC)C=CCN6CC[C@]43[C@@H]65)C2)C1 [VINBLASTINE] : ____
22.6

GET /values?readout=Hepatotoxicity (moderate)&item= Cc1cc(NS(=O)(=O)c2ccc(N)cc2)nc(C)n1 [SULFISOMIDINE]
0

Reported Hepatotoxicity (moderate) for CC(C)NCC(O)COc1ccc(CC(N)=O)cc1 (stereo not drawn) [ATENOLOL] : what is it?
10

Query: Hepatotoxicity (moderate); subject: CC(=O)NCCOC(=O)C(Oc1cccc(C(F)(F)F)c1)c1ccc(Cl)cc1 (stereo not drawn) [HALOFENATE]
0

---
Given Cn1nnnc1SCC1=C(C(=O)O)N2C(=O)[C@@H](NC(=O)[C@H](O)c3ccccc3)[C@H]2SC1 [CEFAMANDOLE] , state its recorded Hepatotoxicity (moderate).
75

Which measured Hepatotoxicity (moderate) value corresponds to NNc1nnc(NN)c2ccccc12 [DIHYDRALAZINE] ?
0
